B1: EEHEE_rd4_0003 (parent)
chain: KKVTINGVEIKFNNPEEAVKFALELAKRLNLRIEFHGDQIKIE

variants of: B1; assay: folding stability dG (cDNA display proteolysis); higher = more stable; settings: PBS, room temperature
property_label: folding stability dG

Param item = `L25R` ; retrieve measured folding stability dG. 0.955 kcal/mol

Now consider `R32F` . 2.12 kcal/mol

Give folding stability dG for each listed item.
1. F12M
2. F12Y
3. I5W
4. F21Y
5. R32Y
6. P15N
7. I40H

["1.96 kcal/mol", "1.89 kcal/mol", "2.83 kcal/mol", "2.49 kcal/mol", "2.15 kcal/mol", "2.45 kcal/mol", "1.56 kcal/mol"]

Give folding stability dG for each listed item.
1. V8R
2. F12R
3. R28M
4. T4W
5. E24V
6. E34K
7. I33W

2.56 kcal/mol
1.41 kcal/mol
2.5 kcal/mol
3.01 kcal/mol
2.35 kcal/mol
2.42 kcal/mol
2.08 kcal/mol

Give folding stability dG for each listed item.
1. K20I
2. E17H
3. K41M
4. I5G
5. A26T
6. N14R

1. 2.38 kcal/mol
2. 2.23 kcal/mol
3. 2.71 kcal/mol
4. 1.72 kcal/mol
5. 1.92 kcal/mol
6. 2.44 kcal/mol
